MEASUREMENT TARGET: T1, EsCas13d, nuclease-dead (Eubacterium siraeum, UniProt B0MS50, R295A;H300A;R849A;H854A)
T1 sequence: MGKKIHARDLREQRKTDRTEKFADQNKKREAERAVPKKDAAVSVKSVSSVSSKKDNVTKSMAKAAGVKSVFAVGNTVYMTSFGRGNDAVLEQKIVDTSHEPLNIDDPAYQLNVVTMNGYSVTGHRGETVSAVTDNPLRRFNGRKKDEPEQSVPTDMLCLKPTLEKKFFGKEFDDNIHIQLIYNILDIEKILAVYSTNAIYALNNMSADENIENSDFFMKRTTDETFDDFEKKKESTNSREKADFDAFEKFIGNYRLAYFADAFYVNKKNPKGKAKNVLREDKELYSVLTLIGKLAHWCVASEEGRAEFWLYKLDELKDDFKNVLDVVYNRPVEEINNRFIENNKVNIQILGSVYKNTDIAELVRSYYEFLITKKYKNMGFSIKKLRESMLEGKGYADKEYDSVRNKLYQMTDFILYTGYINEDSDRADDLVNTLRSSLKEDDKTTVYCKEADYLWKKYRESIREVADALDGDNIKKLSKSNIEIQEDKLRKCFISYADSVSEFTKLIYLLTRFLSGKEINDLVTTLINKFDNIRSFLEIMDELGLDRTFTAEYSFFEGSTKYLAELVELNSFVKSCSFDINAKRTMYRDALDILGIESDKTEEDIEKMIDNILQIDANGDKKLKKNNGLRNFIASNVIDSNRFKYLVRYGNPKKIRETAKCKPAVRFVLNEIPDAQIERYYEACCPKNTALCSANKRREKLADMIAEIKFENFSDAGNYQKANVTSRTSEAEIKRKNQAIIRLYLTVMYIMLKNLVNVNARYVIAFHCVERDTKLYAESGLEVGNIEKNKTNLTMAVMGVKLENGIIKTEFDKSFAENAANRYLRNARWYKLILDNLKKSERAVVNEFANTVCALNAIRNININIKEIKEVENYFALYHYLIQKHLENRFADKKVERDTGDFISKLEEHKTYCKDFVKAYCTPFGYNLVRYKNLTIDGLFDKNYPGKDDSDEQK
PROCEDURE TEXT: crRNA (strand 1, pre-loaded); Mg2+; 40 mM Tris-HCl pH 7.5, 150 mM NaCl, 6 mM MgCl2, 1 mM DTT, 0.1% Tween-20, 0.2 mg/ml BSA; 25 C; 10 min per concentration, then washed
EXPERIMENTAL CONDITIONS: tags: His6-TwinStrep-SUMO cleaved; N-terminal SNAP kept (SNAP-Surface 488); label: 3' end held by stalled T7 RNA polymerase
# pKd annotations
Quick note: pKd values are minus log10 of concentrations in mol/L.

Incoming: Please indicate pKd recorded for target 1 G13A,A20C (mixed) RNA 1: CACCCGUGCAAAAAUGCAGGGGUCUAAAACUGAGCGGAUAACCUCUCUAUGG RNA 2: GGGAAUGGAUCCACAUCUACGAAUUCGUACCCUAGAGAAGUUAUCCGCUCACCGAGAUCGGAAGAGCACACGU
Outgoing: 7.12

Incoming: Answer with the recorded pKd for the binder listed here: target 1 C4A,A14G (mixed) RNA 1: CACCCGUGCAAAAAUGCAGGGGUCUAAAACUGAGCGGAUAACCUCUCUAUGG RNA 2: GGGAAUGGAUCCACAUCUACGAAUUCGUACCAUAGAGGGGUUAUCCGAUCACCGAGAUCGGAAGAGCACACGU
Outgoing: 7.83

FYI, the data here is from paper PMC10786891.
